# System: Candida albicans
# Protocol Text: Antifungal activity against fluconazole-resistant Candida albicans 901 assessed as inhibition of microbial growth after 24 hrs by broth microdilution method
# Assay type: functional
Give measured MIC for each item. Keep answers brief.

Annotate the compound COc1ccccc1[Se]C(Cn1ccnc1)c1ccc(F)cc1F (stereo unspecified) with its measured MIC.
4 µg/mL

Annotate the compound Cc1cccc([Se]C(Cn2ccnc2)c2ccc(F)cc2F)c1 (stereo unspecified) with its measured MIC.
4 µg/mL

Annotate the compound Cc1cc(C)cc([Se]C(Cn2ccnc2)c2ccc(Cl)cc2Cl)c1 (stereo unspecified) with its measured MIC.
4 µg/mL

Annotate the compound Fc1ccc(C[Se]C(Cn2cncn2)c2ccc(F)cc2F)cc1 (stereo unspecified) with its measured MIC.
> 128 µg/mL

Annotate the compound Cc1cccc(C)c1[Se]C(Cn1ccnc1)c1ccc(Cl)cc1Cl (stereo unspecified) with its measured MIC.
16 µg/mL

Annotate the compound CCc1ccccc1[Se]C(Cn1ccnc1)c1ccc(F)cc1F (stereo unspecified) with its measured MIC.
2 µg/mL

Annotate the compound Fc1ccc(C(Cn2cncn2)[Se]Cc2ccc(Cl)cc2)c(F)c1 (stereo unspecified) with its measured MIC.
4 µg/mL

Annotate the compound Fc1cccc([Se]C(Cn2ccnc2)c2ccc(Cl)cc2Cl)c1 (stereo unspecified) with its measured MIC.
1 µg/mL

Annotate the compound Fc1ccc([Se]C(Cn2ccnc2)c2ccc(Cl)cc2Cl)cc1 (stereo unspecified) with its measured MIC.
1 µg/mL

Annotate the compound Fc1cccc([Se]C(Cn2ccnc2)c2ccc(F)cc2F)c1 (stereo unspecified) with its measured MIC.
2 µg/mL

Annotate the compound Cc1ccccc1[Se]C(Cn1ccnc1)c1ccc(F)cc1F (stereo unspecified) with its measured MIC.
2 µg/mL

Annotate the compound COc1ccc(C[Se]C(Cn2cncn2)c2ccc(F)cc2F)cc1 (stereo unspecified) with its measured MIC.
> 128 µg/mL

Annotate the compound CCc1ccc([Se]C(Cn2ccnc2)c2ccc(Cl)cc2Cl)cc1 (stereo unspecified) with its measured MIC.
4 µg/mL

Annotate the compound CCc1ccc([Se]C(Cn2ccnc2)c2ccc(F)cc2F)cc1 (stereo unspecified) with its measured MIC.
2 µg/mL

Annotate the compound Clc1ccc(C(Cn2ccnc2)[Se]c2ccccc2)c(Cl)c1 (stereo unspecified) with its measured MIC.
2 µg/mL

Annotate the compound COc1cccc([Se]C(Cn2ccnc2)c2ccc(Cl)cc2Cl)c1 (stereo unspecified) with its measured MIC.
16 µg/mL
